- test method notes: Cytotoxicity against human HepG2 cells assessed as reduction in cell viability incubated for 24 hrs by CCK8 assay
- Format: toxicity, cell-based

| smiles str | CC50 at 24 h |
| --- | --- |
| Cc1ccc2occ(/C=N/NC(=O)c3cc4ccccc4[nH]3)c(=O)c2c1 | > 200 µM |
| O=C(N/N=C/c1coc2ccccc2c1=O)c1nc2ccccc2[nH]1 | > 200 µM |
| O=C(N/N=C/c1coc2ccccc2c1=O)c1cc2ccccc2[nH]1 | > 200 µM |
| O=C(N/N=C/c1coc2ccc(O)cc2c1=O)c1cc2ccccc2[nH]1 | > 200 µM |

----------
- test method notes: Competitive inhibition of alpha glucosidase (unknown origin) using pNPG as substrate by Dixon plot analysis
- Set-up: species or system Homo sapiens
assay metric: Ki

| smiles str | result |
| --- | --- |
| Cc1ccc2occ(/C=N/NC(=O)c3cc4ccccc4[nH]3)c(=O)c2c1 | 1980 nM |

----------
Reported pIC50 values are given for each entry in this list.
- test method notes: Inhibition of alpha glucosidase (unknown origin)
- Set-up: species or system Homo sapiens
pIC50: −log10 of the molar value.

| compound | reading qualifier | pIC50 |
| --- | --- | --- |
| O=C(N/N=C/c1coc2ccc(O)cc2c1=O)c1cc2ccccc2[nH]1 | = | 4.65 |
| C[C@H]1O[C@H](O[C@H]2[C@H](O)[C@@H](O)[C@@H](O[C@H]3[C@H](O)[C@@H](O)C(O)O[C@@H]3CO)O[C@@H]2CO)[C@H](O)[C@@H](O)[C@@H]1N[C@H]1C=C(CO)[C@@H](O)[C@H](O)[C@H]1O (stereo partly drawn) | = | 5.09 |
| O=C(N/N=C/c1coc2ccccc2c1=O)c1cc2ccccc2[nH]1 | = | 5.19 |
| Cc1ccc2occ(/C=N/NC(=O)c3cc4ccccc4[nH]3)c(=O)c2c1 | = | 5.60 |
| O=C(N/N=C/c1coc2ccccc2c1=O)c1nc2ccccc2[nH]1 | = | 4.49 |
| Cc1ccc(S(=O)(=O)Oc2ccc(/C=N/NC(=O)c3nc4ccccc4[nH]3)cc2)cc1 | = | 3.77 |
| Cc1ccc(S(=O)(=O)Oc2ccc(/C=N/NC(=O)Cc3ccccn3)cc2)cc1 | < | 3.70 |
| Cc1ccc(S(=O)(=O)Oc2ccc(/C=N/NC(=O)c3ccc(O)cc3)cc2)cc1 | < | 3.70 |
